Experiment: Healthy Japanese subjects, Part 2 (100, 200, 300 mg BID up-titration): PK of TAK-935 and M-I
Format: in vivo, human
Settings: human, plasma, oral, 300 mg, Day 21 (300 mg BID), Part 2, Median; read-out: AUC1ast
Readout label: AUC (ng·h/mL)
Give bare numbers, in ng·h/mL.

Ask | # query: AUC of entry O=C(c1cccnc1-c1ccncc1)N1CCC(O)(Cc2ccccc2)CC1
Reply | 2040

###

Assay: Healthy Japanese subjects, Part 2 (100, 200, 300 mg BID up-titration): PK of TAK-935 and M-I
Format: in vivo, human
Conditions: human, plasma, oral, 100 mg, Day 1 (100 mg BID), Part 2, Median; read-out: Vz/F
Readout label: Vd/F (L)
One number for each entry, in L.

Ask | # query: Vd/F of entry O=C(c1cccnc1-c1ccncc1)N1CCC(O)(Cc2ccccc2)CC1 [soticlestat]
Reply | 2450
